# TARGET UNDER TEST: Cystathionine beta-synthase (Homo sapiens, UniProt P35520, T193A)
# Sequence (P35520 whole entry T193A): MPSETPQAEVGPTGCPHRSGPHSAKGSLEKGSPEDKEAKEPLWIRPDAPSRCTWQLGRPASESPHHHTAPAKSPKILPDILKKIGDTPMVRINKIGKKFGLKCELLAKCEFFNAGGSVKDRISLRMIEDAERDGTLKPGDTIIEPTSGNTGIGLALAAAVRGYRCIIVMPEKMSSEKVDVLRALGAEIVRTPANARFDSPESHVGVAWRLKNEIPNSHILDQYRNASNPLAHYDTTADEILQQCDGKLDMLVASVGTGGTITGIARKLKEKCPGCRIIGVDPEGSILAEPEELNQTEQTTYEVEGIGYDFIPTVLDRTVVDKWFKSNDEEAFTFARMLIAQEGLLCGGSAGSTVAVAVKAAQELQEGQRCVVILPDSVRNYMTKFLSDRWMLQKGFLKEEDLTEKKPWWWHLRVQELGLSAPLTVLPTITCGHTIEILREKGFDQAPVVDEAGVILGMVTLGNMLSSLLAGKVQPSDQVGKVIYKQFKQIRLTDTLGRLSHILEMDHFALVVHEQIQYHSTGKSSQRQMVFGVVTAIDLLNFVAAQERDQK
# TEST DETAILS: Inhibition of human CBS T193A mutant assessed as reduction in H2S production using […] as substrate preincubated for 3 mins followed by substrate addition
QUANTITY MEASURED: IC50 (µM)
The reply should be a number in µM, with the unit left off.

*Q* Any idea what its IC50 is? The compound is COc1ccc([C@H]2Oc3cc(O)cc(O)c3C(=O)[C@@H]2[C@H]2C(=O)c3c(O)cc(O)cc3O[C@@H]2c2ccc(O)cc2)cc1
*A* 11.2

----------
# Test system: HT-29
# TEST DETAILS: Antiproliferative activity against human HT-29 cells after 24 hrs by CCK8 assay
# Format: functional, cell-based
# TEST CONTEXT: HT-29, 24 h
QUANTITY MEASURED: IC50 (µM)
Expressed in µM, but write only the number.

COMPOUND SMILES: NOCC(=O)O
TARGET UNDER TEST: HT-29
VALUE UNIT: µM
IC50: 159

API: the following record is the query input.
*Q* Which IC50 value belongs to COc1ccc([C@H]2Oc3cc(O)cc(O)c3C(=O)[C@@H]2[C@H]2C(=O)c3c(O)cc(O)cc3O[C@@H]2c2ccc(O)cc2)cc1 ?
*A* 1.6

----------
# TARGET UNDER TEST: Cystathionine beta-synthase (Homo sapiens, UniProt P35520, Y223A)
# Sequence (P35520 whole entry Y223A): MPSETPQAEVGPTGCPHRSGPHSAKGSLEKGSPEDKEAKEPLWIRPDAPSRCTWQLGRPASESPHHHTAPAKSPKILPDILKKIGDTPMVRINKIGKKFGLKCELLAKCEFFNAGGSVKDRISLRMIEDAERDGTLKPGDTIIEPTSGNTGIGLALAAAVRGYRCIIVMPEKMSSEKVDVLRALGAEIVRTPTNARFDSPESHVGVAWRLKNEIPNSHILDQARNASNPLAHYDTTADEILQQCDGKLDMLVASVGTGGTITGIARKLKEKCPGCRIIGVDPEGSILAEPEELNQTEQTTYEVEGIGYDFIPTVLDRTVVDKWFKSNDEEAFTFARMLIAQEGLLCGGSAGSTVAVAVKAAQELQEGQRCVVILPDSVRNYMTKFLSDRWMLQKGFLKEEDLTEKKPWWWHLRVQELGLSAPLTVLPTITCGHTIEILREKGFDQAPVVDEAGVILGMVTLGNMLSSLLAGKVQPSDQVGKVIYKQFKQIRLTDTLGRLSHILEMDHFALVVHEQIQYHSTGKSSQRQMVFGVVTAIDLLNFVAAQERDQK
# TEST DETAILS: Inhibition of human CBS Y223A mutant assessed as reduction in H2S production using 2 mM […] as substrate preincubated for 3 mins followed by substrate addition
QUANTITY MEASURED: IC50
Please answer using the number first and the unit second.

*Q* What is its IC50 for Cystathionine beta-synthase (Homo sapiens, UniProt P35520, Y223A)? Entry: COc1ccc([C@H]2Oc3cc(O)cc(O)c3C(=O)[C@@H]2[C@H]2C(=O)c3c(O)cc(O)cc3O[C@@H]2c2ccc(O)cc2)cc1
*A* 16.9 µM

----------
# TARGET UNDER TEST: Cystathionine beta-synthase (Homo sapiens, UniProt P35520, Y308A)
# Sequence (P35520 whole entry Y308A): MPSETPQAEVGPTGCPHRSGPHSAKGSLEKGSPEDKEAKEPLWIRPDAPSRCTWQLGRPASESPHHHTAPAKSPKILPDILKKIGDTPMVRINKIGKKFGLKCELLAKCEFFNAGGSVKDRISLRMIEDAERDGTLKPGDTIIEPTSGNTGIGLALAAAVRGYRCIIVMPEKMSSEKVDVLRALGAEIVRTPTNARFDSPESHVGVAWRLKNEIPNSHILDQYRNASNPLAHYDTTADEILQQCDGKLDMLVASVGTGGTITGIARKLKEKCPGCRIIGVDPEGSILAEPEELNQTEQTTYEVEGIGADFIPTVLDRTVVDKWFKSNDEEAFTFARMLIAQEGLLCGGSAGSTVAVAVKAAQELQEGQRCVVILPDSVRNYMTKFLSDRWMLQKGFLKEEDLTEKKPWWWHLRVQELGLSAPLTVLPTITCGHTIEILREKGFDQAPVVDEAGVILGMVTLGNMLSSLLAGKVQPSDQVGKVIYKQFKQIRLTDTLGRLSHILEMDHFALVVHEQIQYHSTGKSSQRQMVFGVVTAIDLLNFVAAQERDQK
# TEST DETAILS: Inhibition of human CBS Y308A mutant assessed as reduction in H2S production using 2 mM […] as substrate preincubated for 3 mins followed by substrate addition
QUANTITY MEASURED: IC50
Returns: string containing the number followed by the unit.

*Q* Dear colleague, I am looking for the recorded IC50 of the following compound: COc1ccc([C@H]2Oc3cc(O)cc(O)c3C(=O)[C@@H]2[C@H]2C(=O)c3c(O)cc(O)cc3O[C@@H]2c2ccc(O)cc2)cc1
*A* 24 µM

----------
# TARGET UNDER TEST: Cystathionine beta-synthase (Homo sapiens, UniProt P35520)
# Sequence (P35520 whole entry, the tested form may be a part): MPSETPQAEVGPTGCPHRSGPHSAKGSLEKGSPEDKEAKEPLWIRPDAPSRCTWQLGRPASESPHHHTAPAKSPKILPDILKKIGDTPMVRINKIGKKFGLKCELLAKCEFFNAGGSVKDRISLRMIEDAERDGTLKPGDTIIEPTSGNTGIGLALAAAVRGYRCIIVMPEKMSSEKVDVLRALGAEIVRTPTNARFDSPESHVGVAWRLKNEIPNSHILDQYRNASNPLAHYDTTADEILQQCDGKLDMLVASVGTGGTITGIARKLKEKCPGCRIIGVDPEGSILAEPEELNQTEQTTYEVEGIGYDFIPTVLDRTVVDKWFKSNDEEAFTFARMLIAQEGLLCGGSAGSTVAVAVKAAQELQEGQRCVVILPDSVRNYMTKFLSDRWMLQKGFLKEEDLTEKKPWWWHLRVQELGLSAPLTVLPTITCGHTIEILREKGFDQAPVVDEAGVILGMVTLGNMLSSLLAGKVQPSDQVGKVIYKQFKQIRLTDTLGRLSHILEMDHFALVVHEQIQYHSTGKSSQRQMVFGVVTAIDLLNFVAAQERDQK
# TEST DETAILS: Inhibition of full-length GST-fused human CBS assessed as reduction in H2S production using […] as substrate preincubated for 3 mins followed by substrate addition measured in presence of Triton X-100
QUANTITY MEASURED: pIC50
Quick note: pIC50 values are minus log10 of concentrations in mol/L.

*Q* Given the compound COc1ccc([C@H]2Oc3cc(O)cc(O)c3C(=O)[C@@H]2[C@H]2C(=O)c3c(O)cc(O)cc3O[C@@H]2c2ccc(O)cc2)cc1 , what is its reported pIC50?
*A* 5.85
